Experiment summary: Clearance in cynomolgus monkey at 1 mg/kg, iv administered as bolus dose
Type: ADME, organism-based, Macaca fascicularis
Condition summary: in vivo
Measurement kind: clearance (mL/min/kg)
One number for each entry, in mL/min/kg.

Bench note: what clearance did O=C1CCC(N2Cc3cc(CNC(=O)C(F)(F)c4ccc(Cl)cc4)ccc3C2=O)C(=O)N1 (stereo unspecified) show?
6

----------
Experiment summary: MRT in CD-IGS rat at 2 mg/kg, iv administered as bolus dose
Type: ADME, organism-based
Condition summary: in vivo
Measurement kind: MRT (h)
Give bare numbers, in h.

Bench note: what MRT did O=C1CCC(N2Cc3cc(CNC(=O)C(F)(F)c4ccc(Cl)cc4)ccc3C2=O)C(=O)N1 (stereo unspecified) show?
1.3
